Data provenance is PubChem BioAssay (NCI).

Assay: NCI Yeast Anticancer Drug Screen. Data for the rad50 strain (AID 155)
Details: S. cerevisiae rad50 strain growth inhibition; at 5.0 µM (retest, dose inferred, filed as 0.5); stronger effect = higher value
About 79,000 compounds went through this panel and 15% of them were active in at least one assay; those are over-represented in the sample as a whole.
Decision: growth inhibition >= 20% yields met, all other cases yield not met.

{"columns": ["molecule", "group.label"],
 "data": [
  ["CCCSc1n[nH]c(=S)s1", "not met"],
  ["Cc1cc(OCCl)ccc1[N+](=O)[O-]", "not met"],
  ["COc1cccc2c1C(=O)c1c(O)c3c(c(O)c1C2=O)CC(O)(C(C)=O)CC3OC1CC(N/C(C)=C/C(C)=O)C(O)C(C)O1 (stereo not drawn)", "met"],
  ["CCCCCCCCCCCCCCCCNCCCN(C)CCCN", "not met"],
  ["CC(/C=C/c1cccs1)=N\\NC(=S)NCC(C)C", "not met"],
  ["C=CCNc1nc2c(s1)C(=O)c1ccccc1C2=O", "met"],
  ["CC(C)COC(=O)c1ccc(N=Cc2ccc(C=Nc3ccc(C(=O)OCC(C)C)cc3)cc2)cc1", "met"],
  ["CC(C)[CH2][Ge]([Cl])([Cl])[Cl]", "not met"],
  ["Cc1cccnc1NC(=S)Nc1ccccc1Cl", "not met"],
  ["COc1cccc2c1OC(c1ccc(Cl)cc1)C([N+](=O)[O-])=C2 (stereo not drawn)", "met"],
  ["O=c1c2c3c(sc2nc2n1N=C(c1ccc(Br)cc1)CS2)CCCC3", "not met"],
  ["Cc1ccc(C(OS(=O)(=O)c2ccc(C)cc2)C(F)(F)F)cc1 (stereo not drawn)", "not met"],
  ["CC1=Nc2ccccc2/C1=C\\c1c(C)[nH]c2ccccc12", "met"],
  ["Cc1cc(OC(=O)CCl)ccc1C(C)(C)C", "not met"],
  ["O=[N+]([O-])c1nccn1CCCNCCCn1ccnc1[N+](=O)[O-]", "met"],
  ["O=C(O)CCCc1ccc2c(c1)CC1(C2)Cc2ccc(CCCC(=O)O)cc2C1", "met"],
  ["CNC(=O)NC(c1cc(OC)c(OC)c(OC)c1)c1cc2c(cc1O)OCO2 (stereo not drawn)", "not met"],
  ["O=C(NNc1ccccc1)c1cccc([N+](=O)[O-])c1", "met"],
  ["O[C@H](CNCCS)[C@@H](O)CNCCS", "not met"],
  ["C1CCC2[N-]CC3CCCCC3[N-]CC3CCCCC3[N-]CC3CCCCC3[N-]CC2C1.[Cl][Fe]([Cl])([Cl])[Cl].[Fe+6] (stereo not drawn)", "met"],
  ["COc1ccc2c(c1)C(=O)/C(=C/c1ccc([N+](=O)[O-])o1)CO2", "not met"],
  ["CN=C(N)N/N=C(\\C)c1ccc2c(ccc3ccccc32)c1", "not met"],
  ["O=C(NO)Nc1nc(Cl)c(Cl)nc1Cl", "not met"]
]}
